B1: Steroid hormone receptor ERR2, residues 100 to 176; numbered along this chain, O95718 (parent)
chain: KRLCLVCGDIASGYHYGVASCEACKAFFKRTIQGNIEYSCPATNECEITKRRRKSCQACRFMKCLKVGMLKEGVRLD

Variants of: B1
assayDetails: abundance fitness (aPCA) (normalised: wild type 0, dead -1); higher = more abundant; growth selection in yeast, the domain comes from the species named
conditionContext: Homo sapiens
valueType: abundance fitness
Answer with a bare number; do not write a unit.

Example variants with recorded abundance fitness:
# abundance fitness of E37Y = -0.745

# abundance fitness of K29M = -0.064

# abundance fitness of F61D = -1.06

# abundance fitness of G17Q = -0.748

# abundance fitness of G13T = -0.509

New cases:
# abundance fitness of R2S = -0.187

# abundance fitness of A19W = -0.307

# abundance fitness of R60D = -0.828

# abundance fitness of K25P = 0.278

# abundance fitness of R53A = 0.005

# abundance fitness of C46F = -0.768
